# assayedSystem: INSR (Homo sapiens)
# Sequence (P06213 28-1382, species assumed): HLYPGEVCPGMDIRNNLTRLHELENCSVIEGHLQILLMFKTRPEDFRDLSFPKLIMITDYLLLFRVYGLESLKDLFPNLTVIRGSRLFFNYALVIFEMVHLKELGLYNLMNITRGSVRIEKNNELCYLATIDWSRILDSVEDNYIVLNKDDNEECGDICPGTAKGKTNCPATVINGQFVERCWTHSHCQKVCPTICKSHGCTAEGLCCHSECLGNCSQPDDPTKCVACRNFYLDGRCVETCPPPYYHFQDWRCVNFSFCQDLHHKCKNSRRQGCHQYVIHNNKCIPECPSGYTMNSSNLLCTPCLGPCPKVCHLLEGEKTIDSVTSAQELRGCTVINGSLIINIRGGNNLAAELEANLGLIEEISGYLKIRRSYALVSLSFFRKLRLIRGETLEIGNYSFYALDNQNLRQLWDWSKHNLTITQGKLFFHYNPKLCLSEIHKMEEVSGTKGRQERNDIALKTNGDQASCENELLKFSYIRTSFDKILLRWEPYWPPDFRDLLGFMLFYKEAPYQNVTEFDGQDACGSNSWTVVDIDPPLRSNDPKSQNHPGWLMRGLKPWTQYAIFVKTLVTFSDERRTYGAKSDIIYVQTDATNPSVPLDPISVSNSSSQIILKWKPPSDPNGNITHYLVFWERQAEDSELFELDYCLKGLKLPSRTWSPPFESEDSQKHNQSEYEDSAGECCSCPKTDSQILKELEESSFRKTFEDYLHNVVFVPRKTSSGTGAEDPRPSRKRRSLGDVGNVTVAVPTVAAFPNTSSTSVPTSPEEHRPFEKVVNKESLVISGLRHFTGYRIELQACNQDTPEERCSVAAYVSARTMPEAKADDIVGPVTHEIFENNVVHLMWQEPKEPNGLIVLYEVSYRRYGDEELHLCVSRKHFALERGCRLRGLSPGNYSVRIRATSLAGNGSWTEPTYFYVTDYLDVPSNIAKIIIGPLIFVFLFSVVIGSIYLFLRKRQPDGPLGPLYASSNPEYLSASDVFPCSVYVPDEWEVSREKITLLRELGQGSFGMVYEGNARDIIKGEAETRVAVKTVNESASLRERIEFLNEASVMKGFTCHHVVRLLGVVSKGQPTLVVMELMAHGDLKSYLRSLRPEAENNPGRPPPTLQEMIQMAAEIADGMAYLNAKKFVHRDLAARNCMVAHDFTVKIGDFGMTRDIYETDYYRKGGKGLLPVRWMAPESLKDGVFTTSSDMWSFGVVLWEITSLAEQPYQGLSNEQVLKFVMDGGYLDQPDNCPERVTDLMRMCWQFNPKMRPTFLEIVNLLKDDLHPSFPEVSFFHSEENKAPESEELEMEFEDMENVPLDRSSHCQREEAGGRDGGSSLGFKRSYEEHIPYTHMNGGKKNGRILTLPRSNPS
observable: IC50

Look up INSR (Homo sapiens) data: IC50 of C[C@H]1C[C@@H](O)CN(c2ncc(Cl)c(Nc3ccc4c(c3)c3c(c(=O)n4C)OCC(F)(F)[C@H](C4CC4)N3)n2)C1 [12a CCT373566] , then report it. > 10 µM

###

# assayedSystem: HTR1A (Homo sapiens, UniProt P08908)
# Sequence (P08908 1-422): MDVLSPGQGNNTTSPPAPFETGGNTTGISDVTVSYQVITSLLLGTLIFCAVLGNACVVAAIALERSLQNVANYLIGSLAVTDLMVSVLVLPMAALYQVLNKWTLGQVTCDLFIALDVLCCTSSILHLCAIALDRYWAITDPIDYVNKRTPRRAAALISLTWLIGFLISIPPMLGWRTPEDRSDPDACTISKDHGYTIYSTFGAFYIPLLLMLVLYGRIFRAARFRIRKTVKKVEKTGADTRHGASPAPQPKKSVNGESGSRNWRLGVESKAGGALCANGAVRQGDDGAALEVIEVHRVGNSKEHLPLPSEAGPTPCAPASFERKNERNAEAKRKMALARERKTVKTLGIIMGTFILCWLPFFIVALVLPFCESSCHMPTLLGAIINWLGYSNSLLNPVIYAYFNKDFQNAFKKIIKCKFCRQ
# methodNotes: SAFETYScan GPCR cAMP, Agonist
# appliedConditions: read-out: RC50 (EC50)
observable: EC50

Provide only the value of recorded EC50 for C[C@H]1C[C@@H](O)CN(c2ncc(Cl)c(Nc3ccc4c(c3)c3c(c(=O)n4C)OCC(F)(F)[C@H](C4CC4)N3)n2)C1 [12a CCT373566] > 10 µM

###

# assayedSystem: OPRK1 (Homo sapiens, UniProt P41145)
# Sequence (P41145 whole entry, species assumed): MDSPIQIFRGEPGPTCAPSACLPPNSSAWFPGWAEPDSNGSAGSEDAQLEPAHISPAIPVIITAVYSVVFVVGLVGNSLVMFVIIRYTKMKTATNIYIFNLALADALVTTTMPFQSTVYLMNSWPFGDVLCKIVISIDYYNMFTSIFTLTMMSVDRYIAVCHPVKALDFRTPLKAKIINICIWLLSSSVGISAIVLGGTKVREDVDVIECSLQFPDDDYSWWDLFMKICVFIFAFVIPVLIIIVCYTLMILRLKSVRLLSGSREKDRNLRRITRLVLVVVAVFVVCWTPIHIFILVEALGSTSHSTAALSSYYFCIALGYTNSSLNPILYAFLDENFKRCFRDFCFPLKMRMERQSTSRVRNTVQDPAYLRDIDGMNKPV
# methodNotes: SAFETYScan GPCR cAMP, Antagonist
# appliedConditions: read-out: RC50 (IC50)
# Excerpt: Supplement jm1c02175_si_002.xlsx, sheet "SAFETYScan" | column: RC50 (uM); Max Response
observable: IC50

Provide only the value of recorded IC50 for C[C@H]1C[C@@H](O)CN(c2ncc(Cl)c(Nc3ccc4c(c3)c3c(c(=O)n4C)OCC(F)(F)[C@H](C4CC4)N3)n2)C1 [12a CCT373566] > 10 µM

###

# methodNotes: In vivo pharmacokinetic study in Balb/C mice
# Parameters: species or system mouse
# appliedConditions: mouse, in vivo, 1 mg/kg; female Balb/C mice; read-out: Vss
observable: Vd (L/kg)
Record the value in L/kg, omitting the unit from your answer.

{"compound": "C[C@H]1C[C@@H](O)CN(c2ncc(Cl)c(Nc3ccc4c(c3)c3c(c(=O)n4C)OCC(F)(F)[C@H](C4CC4)N3)n2)C1 [12a CCT373566]", "measValue": 0.47}

Switching to the query record.
Provide only the value of recorded Vd for `C[C@@H]1CN(c2ncc(Cl)c(Nc3ccc4c(c3)n(CCC(C)(C)O)c(=O)n4C)n2)C[C@H](C)C1(F)F` 2.1

###

# assayedSystem: PDE4D2 (Homo sapiens, UniProt Q08499)
# Sequence (Q08499 303-809 limits assumed): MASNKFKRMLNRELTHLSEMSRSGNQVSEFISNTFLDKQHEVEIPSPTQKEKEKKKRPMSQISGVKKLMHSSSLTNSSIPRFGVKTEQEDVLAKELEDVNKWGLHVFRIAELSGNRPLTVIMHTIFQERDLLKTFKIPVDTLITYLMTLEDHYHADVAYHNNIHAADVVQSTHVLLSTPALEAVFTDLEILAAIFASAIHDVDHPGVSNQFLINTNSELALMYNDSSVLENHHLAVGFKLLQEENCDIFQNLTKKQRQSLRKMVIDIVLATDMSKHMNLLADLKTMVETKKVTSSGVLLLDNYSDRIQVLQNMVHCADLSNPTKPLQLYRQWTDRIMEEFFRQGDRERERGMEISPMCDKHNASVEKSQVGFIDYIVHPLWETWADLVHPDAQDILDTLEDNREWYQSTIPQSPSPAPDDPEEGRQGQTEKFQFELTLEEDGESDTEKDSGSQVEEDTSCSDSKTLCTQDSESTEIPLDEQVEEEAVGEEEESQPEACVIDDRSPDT
pIC50: −log10 of the molar value.
observable: pIC50

Provide only the value of recorded pIC50 for C[C@H]1C[C@@H](O)CN(c2ncc(Cl)c(Nc3ccc4c(c3)c3c(c(=O)n4C)OCC(F)(F)[C@H](C4CC4)N3)n2)C1 [12a CCT373566] < 5.00
